Tested on: A549
Test: NCI tumour cell line growth inhibition, 48 h
The source made the active and inactive calls. Rule as the data show it: active = GI50 up to about 1.1 µM and inactive = higher.
Labels: active, inactive

compound	group
COc1cc([C@@H]2c3cc4c(cc3[C@@H](c3c(O)cc(O)c5c3O[C@H](c3ccc(O)c(O)c3)[C@H](OC(=O)c3cc(O)c(O)c(O)c3)C5)[C@H]3COC(=O)[C@H]23)OCO4)cc(OC)c1OC	inactive
O=S(=O)(O)c1ccc2c(/N=N/c3ccccc3)c(O)c(S(=O)(=O)O)cc2c1	inactive
Cc1ccc(OCC2OC(n3cnc4nc(N)nc(Cl)c43)CC2Oc2ccc(C)cc2)cc1 (configuration not stated)	inactive
N#Cc1c(-c2ccc(Cl)cc2)c2c([nH]c1=O)-c1ccccc1SC2	inactive
C=C1CCc2ccccc2C1=O	inactive
Nc1c(-c2nc3ccccc3[nH]2)sc(=S)n1-c1ccc(Cl)cc1	inactive
Cc1cccc(-c2cc(O)c3cc(C)cnc3n2)c1	active
CN1C(=O)C(=Cc2ccc(Br)cc2)C(=O)N(C)C1=O	inactive
Oc1c(C(Nc2ccccn2)c2ccccc2)ccc2cccnc12 (configuration not stated)	inactive
CC(=O)O[C@H]1CC[C@@]2(C)C(=CC[C@H]3C4=CC=C(C(C)=O)[C@@]4(C)CCC32)C1 (some centres not stated)	inactive
O=C(O)C12C3C4(C(=O)O)C1C1(C(=O)O)C2C3(C(=O)O)C41 (configuration not stated)	inactive
COC(=O)C(Cc1c[nH]c2ccccc12)NP(=O)(O)OCC1OC(n2cc(Br)c(=O)[nH]c2=O)CC1O (configuration not stated)	inactive
O=C(O)CC[P+](c1ccccc1)(c1ccccc1)c1ccccc1	inactive
COC1OC(CO)C(O)C(NC(=O)N(C)N=O)C1O (configuration not stated)	inactive
CC(C)C1N(C)c2ccc(Cl)cc2[C@H]2c3ccccc3CCN12 (some centres not stated)	inactive
Nc1ncnc2c1ncn2C1OC(CSCC(F)(F)F)C(O)C1O (configuration not stated)	inactive
Nc1cc(N2CCCC2)nc(=O)n1-c1ccccc1	inactive
O=C(c1cc(Cl)cc(Cl)c1)N(C(=O)N1CCN(c2ccccc2)CC1)c1ccccc1	inactive
N#C/C(=C\c1ccccc1O)C(N)=O	inactive
COc1ccc(OC)c(CC(C)N)c1 (configuration not stated)	inactive
O=C(CSc1ncnc2[nH]cnc12)c1ccccc1	inactive
Nc1cc(Cl)ccc1SSc1ccc(Cl)cc1N	inactive
NC(=O)c1ncn2c1NCC1OC2C(O)C1O (configuration not stated)	inactive
COC(=O)[C@@H]1[C@H](O)CCC2=C(CC(=O)c3ccoc3)[C@H](C)CC[C@]21C	inactive
CCCC(O)C(NC(=O)CCl)C(=O)O (configuration not stated)	inactive
CC(=O)OCC1OC(n2c(C#N)cc(=O)[nH]c2=O)CC1OC(C)=O (configuration not stated)	inactive
CC(N)Cc1ccc(C(=O)Cl)cc1 (configuration not stated)	inactive
O=C(Nc1nn(C(=O)c2cccnc2)c(=O)s1)c1ccc(Cl)cc1	inactive
CCOP(=O)(C/C=C/Cn1ncc(=O)[nH]c1=O)OCC	inactive
O=C(NC(OCc1ccccc1)(C(F)(F)F)C(F)(F)F)OCc1ccccc1	inactive
Oc1ccc([C@H]2c3c(O)cc(O)cc3C3c4c(cc(O)cc4[C@@H]2[C@H]2c4cc(O)cc5c4C(c4cc(O)cc(O)c4[C@@H]2c2ccc(O)cc2)[C@@H](c2ccc(O)cc2)O5)O[C@@H]3c2ccc(O)cc2)cc1 (some centres not stated)	active
O=C1/C(=C/c2ccccc2)NC(=S)N1CN1CCCCC1	inactive
CC(=O)Nc1ccc2[nH]c(C(=O)N3CC(CCl)c4c3cc([N+](=O)[O-])c3ccccc43)cc2c1 (configuration not stated)	active
COC1(OC)C2(Cl)C(Cl)=C(Cl)C1(Cl)C1C=CC=CC12 (configuration not stated)	inactive
COc1nc2ccc(COc3ccc(C(=O)NC(CCC(=O)O)C(=O)O)cc3)cc2nc1OC (configuration not stated)	inactive
C(/C=N/c1ccccc1)=C(/Nc1ccccc1)c1ccc2ccccc2c1	inactive
CCOC(=O)c1c(N/C(S)=N/c2ccccc2)sc2c1CCOC2	inactive
CC(C)NC(=O)OCc1c(COC(=O)NC(C)C)c(-c2cc[n+](COC(=O)C3CC3)cc2)n2c1CCC2	inactive
OCc1cc2c(ccc3sc4ccc5sc6ccc7ncccc7c6c5c4c32)s1	inactive
CN(CCC#N)c1ccc(/C=C2\SC(=S)NC2=O)cc1	inactive
Nc1nc(Cl)cc(NCC2(O)CC(CO)C2)n1 (configuration not stated)	inactive
COc1ccc2c(c1)CCC/C2=N\NS(=O)(=O)c1c(C)cc(C)cc1C	inactive
